SUBJECT_OF_TEST: UniProt:O15382
Sequence (O15382 28-392): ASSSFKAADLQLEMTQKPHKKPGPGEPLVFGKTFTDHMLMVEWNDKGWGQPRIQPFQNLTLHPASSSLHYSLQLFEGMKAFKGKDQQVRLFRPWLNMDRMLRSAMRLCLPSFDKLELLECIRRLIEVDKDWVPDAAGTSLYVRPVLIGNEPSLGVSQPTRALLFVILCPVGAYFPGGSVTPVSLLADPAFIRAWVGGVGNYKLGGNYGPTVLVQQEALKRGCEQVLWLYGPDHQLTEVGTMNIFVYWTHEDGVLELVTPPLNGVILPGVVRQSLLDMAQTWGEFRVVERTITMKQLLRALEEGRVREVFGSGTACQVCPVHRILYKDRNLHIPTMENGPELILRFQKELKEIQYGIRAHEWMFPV
TEST_METHOD_NOTES: BCAT2 in vitro enzyme inhibition assay (hBCAT2, glutamate dehydrogenase/diaphorase/resazurin coupled fluorescence read)
Type: biochemical
RUN_PARAMETERS: hBCAT2, 1 h preincubation at 25° C., one hour reaction; average where tested multiple times
// IC50 lookup, one value per entry
READOUT: IC50

[
  {
    "MOLECULE": "N#Cc1ccc(F)c(C(=O)N[C@H]2CCC[C@@H](n3c(-c4ccccc4F)nc4cnc(-c5nc[nH]n5)cc43)C2)c1",
    "EXPERIMENTAL_RESULT": "< 0.1 µM"
  },
  {
    "MOLECULE": "O=C(N[C@H]1CCC[C@@H](n2c(-c3ccccc3F)nc3cnc(-c4nc[nH]n4)cc32)C1)c1cc(Cl)ccc1O",
    "EXPERIMENTAL_RESULT": "< 0.1 µM"
  },
  {
    "MOLECULE": "O=C1c2c(ccc(F)c2F)CN1[C@H]1CCC[C@@H](n2c(-c3ccccc3F)nc3cnc(-c4nc[nH]n4)cc32)C1",
    "EXPERIMENTAL_RESULT": "< 0.1 µM"
  },
  {
    "MOLECULE": "O=C(N[C@H]1CCC[C@@H](n2c(-c3ccccc3F)nc3cnc(-c4ncn(C(F)F)n4)cc32)[C@@H]1O)c1cc(Cl)ccn1",
    "EXPERIMENTAL_RESULT": "< 0.1 µM"
  },
  {
    "MOLECULE": "N#Cc1ccccc1-c1nc2cnc(-c3nc[nH]n3)cc2n1[C@@H]1CCC[C@H](N2COc3ccc(F)cc3C2=O)C1",
    "EXPERIMENTAL_RESULT": "< 0.1 µM"
  },
  {
    "MOLECULE": "CN1CC(NC(=O)c2cc(F)ccc2F)CC(n2c(-c3ncccc3F)nc3cnc(-c4nc[nH]n4)cc32)C1 (stereo not drawn)",
    "EXPERIMENTAL_RESULT": "0.1 to 0.5 µM"
  },
  {
    "MOLECULE": "O=C(N[C@H]1CCC[C@@H](n2c(-c3ccccc3F)nc3cnc(N4CCCC4)cc32)C1)c1cc(Cl)ccn1",
    "EXPERIMENTAL_RESULT": "0.1 to 0.5 µM"
  },
  {
    "MOLECULE": "CN1C[C@H](NC(=O)c2cc(F)ccn2)C[C@H](n2c(-c3ccccc3OC(F)F)nc3cnc(-c4nc[nH]n4)cc32)C1",
    "EXPERIMENTAL_RESULT": "< 0.1 µM"
  },
  {
    "MOLECULE": "CN1C[C@@H](NC(=O)c2cc(F)ccn2)C[C@@H](n2c(-c3ccccc3OCCO)nc3cnc(-c4ncccn4)cc32)C1",
    "EXPERIMENTAL_RESULT": "0.5 to 1 µM"
  }
]

src = patent US20260334439A1
